- test.details: Cyclic voltammetry, reduction of nitro group
- Type: physicochemical
- condition.label: current ratio RNO2/RNO2•−, couple IIIc/IIIa; DMSO
- Method: Cyclic Voltammetry (CV) was carried out using a Metrohm Autolab instrument model PGSTAT204, using dimethyl sulfoxide (DMSO) as the solvent (1 mM solutions), tetrabutylammonium perchlorate (0.1 M TBAP) as the supporting electrolyte, a hanging drop mercury electrode (HDME) as the working electrode, Ag/AgCl (3M KCl) as the reference electrode, and a graphite rod as the counter electrode. All measurements were performed after bubbling with nitrogen (N2) for 10 min. […]
Sorting guide: entries reporting Ipa/Ipc beneath 0.9 go in the Fulfilled pile, the rest go in the Not fulfilled pile.

Cn1c2ccc([N+](=O)[O-])cc2c(=O)n1Cc1cccc(Br)c1: Not fulfilled
O=[N+]([O-])c1ccc2c(c1)c(O)nn2CCCCCCCl: Fulfilled
O=[N+]([O-])c1ccc2c(c1)c(O)nn2CCCCCO: Fulfilled
Cn1[nH]c2ccc([N+](=O)[O-])cc2c1=O: Not fulfilled
Cn1c2ccc([N+](=O)[O-])cc2c(=O)n1Cc1cccc(F)c1: Not fulfilled

Task: Bench note: check whether `O=c1[nH]n(-c2ccccc2)c2ccc([N+](=O)[O-])cc12` shows Ipa/Ipc below 0.9
Result: Fulfilled

Task: Try the compound `COc1ccccc1Cn1c(=O)c2cc([N+](=O)[O-])ccc2n1C`
Result: Not fulfilled

Task: Try the compound `COc1nn(C)c2ccc([N+](=O)[O-])cc12`
Result: Fulfilled

Task: Try the compound O=C(Cn1ccnc1[N+](=O)[O-])NCc1ccccc1 [BNZ, benznidazole, reference compound]
Result: Not fulfilled

Task: Try the compound `Cn1c2ccc([N+](=O)[O-])cc2c(=O)n1Cc1ccccc1Br`
Result: Not fulfilled

Task: Try the compound `Cn1c(=O)c2cc([N+](=O)[O-])ccc2n1C`
Result: Not fulfilled

Task: Try the compound `O=c1c2cc([N+](=O)[O-])ccc2[nH]n1Cc1ccccn1`
Result: Fulfilled

Task: Try the compound `Cn1c2ccc([N+](=O)[O-])cc2c(=O)n1Cc1cccc(Cl)c1`
Result: Not fulfilled

Task: Try the compound CC1CS(=O)(=O)CCN1/N=C/c1ccc([N+](=O)[O-])o1 (stereo not shown) [NFX, nifurtimox, reference compound]
Result: Not fulfilled

Task: Try the compound `O=c1c2cc([N+](=O)[O-])ccc2[nH]n1-c1ccccc1`
Result: Fulfilled

Task: Try the compound `Cn1c2ccc([N+](=O)[O-])cc2c(=O)n1Cc1ccc(F)cc1`
Result: Not fulfilled

Task: Try the compound `Cn1c2ccc([N+](=O)[O-])cc2c(=O)n1Cc1ccccc1C(F)(F)F`
Result: Not fulfilled

Task: Try the compound `Cn1c2ccc([N+](=O)[O-])cc2c(=O)n1Cc1ccccc1Cl`
Result: Not fulfilled

Task: Try the compound `Cn1nc(O)c2cc([N+](=O)[O-])ccc21`
Result: Fulfilled

Task: Try the compound `Cn1c2ccc([N+](=O)[O-])cc2c(=O)n1Cc1ccccc1`
Result: Not fulfilled

Task: Try the compound `Cn1c2ccc([N+](=O)[O-])cc2c(=O)n1Cc1ccc(Br)cc1`
Result: Not fulfilled

Task: Try the compound `Cn1c2ccc([N+](=O)[O-])cc2c(=O)n1Cc1ccccc1F`
Result: Not fulfilled

###

Recorded measurements of −EpaIII, one per entry
- test.details: Cyclic voltammetry, reduction of nitro group
- Assay type: physicochemical
- condition.label: anodic peak potential of couple IIIc/IIIa, given with inverted sign; vs. Ag/AgCl electrode in DMSO

Task: Quick one: −EpaIII for `COc1ccccc1Cn1c(=O)c2cc([N+](=O)[O-])ccc2n1C` ?
Result: 1.04 V

Task: Try the compound `O=[N+]([O-])c1ccc2c(c1)c(O)nn2CCCCCO`
Result: 1.28 V

###

- Test system: T. cruzi epimastigote stage (Dm28c strain)
- test.details: Epimastigotes viability study (MTT)
- Assay type: cell-based, Trypanosoma cruzi
- condition.label: T. cruzi Dm28c epimastigotes, 24 h, MTT
measured.attribute: IC50 (nM)
Report the value in nM with no unit label.

Task: Quick one: IC50 for O=c1c2cc([N+](=O)[O-])ccc2[nH]n1Cc1ccccn1 [Compound 5a, 5-nitro-2-picolyl-indazolin-3-one] ?
Result: 1100

###

Recorded measurements of melting point, one per entry

As a guide, the following entries are already answered.
Cn1c2ccc([N+](=O)[O-])cc2c(=O)n1Cc1ccccc1Br [Compound 12]: 182 to 184 °C
Cn1c2ccc([N+](=O)[O-])cc2c(=O)n1Cc1ccc(F)cc1 [Compound 8]: 139 to 141 °C
Cn1c2ccc([N+](=O)[O-])cc2c(=O)n1Cc1cccc(F)c1 [Compound 7]: 125 to 127 °C
CC(c1ccccc1)n1c(=O)c2cc([N+](=O)[O-])ccc2n1C (stereo not shown) [Compound 18]: 155 to 157 °C
Cn1c2ccc([N+](=O)[O-])cc2c(=O)n1Cc1ccccc1Cl [Compound 9]: 179 to 181 °C

Task: Quick one: melting point for COc1ccccc1Cn1c(=O)c2cc([N+](=O)[O-])ccc2n1C [Compound 15] ?
Result: 210 to 212 °C

Task: Try the compound COc1ccc(Cn2c(=O)c3cc([N+](=O)[O-])ccc3n2C)cc1 [Compound 16]
Result: 139 to 141 °C

###

- test.details: Cyclic voltammetry, reduction of nitro group
- Format: physicochemical
- condition.label: anodic peak potential of couple IIIc/IIIa, given with inverted sign; vs. Ag/AgCl electrode in DMSO
Sorting guide: entries reporting −EpaIII beneath 1 V go in the Fulfilled pile, the rest go in the Not fulfilled pile.

Please review the entries below; each comes with its answer.
Cn1[nH]c2ccc([N+](=O)[O-])cc2c1=O [Compound 3a]: Fulfilled
O=c1c2cc([N+](=O)[O-])ccc2[nH]n1Cc1ccccn1 [Compound 5a, 5-nitro-2-picolyl-indazolin-3-one]: Not fulfilled
Cn1c2ccc([N+](=O)[O-])cc2c(=O)n1Cc1ccccc1C(F)(F)F [Compound 17]: Fulfilled

Task: Bench note: check whether Cn1nc(O)c2cc([N+](=O)[O-])ccc21 [Compound 19, 1-methyl-5-nitroindazol-3-ol] shows −EpaIII below 1 V
Result: Not fulfilled

Task: Try the molecule Cn1c(=O)c2cc([N+](=O)[O-])ccc2n1C [Compound 3b]
Result: Not fulfilled

###

Recorded measurements of −EpcIII, one per entry
- test.details: Cyclic voltammetry, reduction of nitro group
- Assay type: physicochemical
- condition.label: cathodic peak potential of couple IIIc/IIIa, given with inverted sign; vs. Ag/AgCl electrode in DMSO
- Procedure: Cyclic Voltammetry (CV) was carried out using a Metrohm Autolab instrument model PGSTAT204, using dimethyl sulfoxide (DMSO) as the solvent (1 mM solutions), tetrabutylammonium perchlorate (0.1 M TBAP) as the supporting electrolyte, a hanging drop mercury electrode (HDME) as the working electrode, Ag/AgCl (3M KCl) as the reference electrode, and a graphite rod as the counter electrode. All measurements were performed after bubbling with nitrogen (N2) for 10 min. […]
Report the value in V with no unit label.

As a guide, the following entries are already answered.
Cn1c2ccc([N+](=O)[O-])cc2c(=O)n1Cc1cccc(Cl)c1: 1.17
Cn1c2ccc([N+](=O)[O-])cc2c(=O)n1Cc1cccc(F)c1: 1.20
Cn1c2ccc([N+](=O)[O-])cc2c(=O)n1Cc1ccccc1Cl: 1.10
CC(c1ccccc1)n1c(=O)c2cc([N+](=O)[O-])ccc2n1C (stereo not drawn): 1.12
Cn1c(=O)c2cc([N+](=O)[O-])ccc2n1C: 1.13

Now for the compound whose −EpcIII we want.
Task: Quick one: −EpcIII for `O=[N+]([O-])c1ccc2c(c1)c(O)nn2CCCCCCCl` ?
Result: 1.37

###

Recorded measurements of melting point, one per entry

As a guide, the following entries are already answered.
Cn1c2ccc([N+](=O)[O-])cc2c(=O)n1Cc1ccc(Br)cc1 [Compound 14]: 144 to 146 °C
Cn1c2ccc([N+](=O)[O-])cc2c(=O)n1Cc1cccc(Br)c1 [Compound 13]: 149 to 151 °C
Cn1c2ccc([N+](=O)[O-])cc2c(=O)n1Cc1ccc(Cl)cc1 [Compound 11]: 128 to 130 °C

Task: Quick one: melting point for Cn1c2ccc([N+](=O)[O-])cc2c(=O)n1Cc1cccc(Cl)c1 [Compound 10] ?
Result: 154 to 156 °C

Task: Try the compound Cn1c2ccc([N+](=O)[O-])cc2c(=O)n1Cc1ccccc1C(F)(F)F [Compound 17]
Result: 211 to 213 °C

###

Recorded measurements of −EpcIII, one per entry
- test.details: Cyclic voltammetry, reduction of nitro group
- Type: physicochemical
- condition.label: cathodic peak potential of couple IIIc/IIIa, given with inverted sign; vs. Ag/AgCl electrode in DMSO
Report the value in V with no unit label.

As a guide, the following entries are already answered.
O=c1c2cc([N+](=O)[O-])ccc2[nH]n1-c1ccccc1: 1.37
O=[N+]([O-])c1ccc2c(c1)c(O)nn2CCCCCO: 1.38
Cn1c2ccc([N+](=O)[O-])cc2c(=O)n1Cc1ccccc1F: 1.22
COc1nn(C)c2ccc([N+](=O)[O-])cc12: 1.37

Task: Quick one: −EpcIII for O=C(Cn1ccnc1[N+](=O)[O-])NCc1ccccc1 [BNZ, benznidazole, reference compound] ?
Result: 1.08

Task: Try the compound `Cn1c2ccc([N+](=O)[O-])cc2c(=O)n1Cc1ccccc1`
Result: 1.12

Task: Try the compound CC1CS(=O)(=O)CCN1/N=C/c1ccc([N+](=O)[O-])o1 (stereo not drawn) [NFX, nifurtimox, reference compound]
Result: 0.91

Task: Try the compound `Cn1c2ccc([N+](=O)[O-])cc2c(=O)n1Cc1cccc(Br)c1`
Result: 1.13

Task: Try the compound `Cn1nc(O)c2cc([N+](=O)[O-])ccc21`
Result: 1.35

Task: Try the compound `COc1ccc(Cn2c(=O)c3cc([N+](=O)[O-])ccc3n2C)cc1`
Result: 1.15

Task: Try the compound `Cn1c2ccc([N+](=O)[O-])cc2c(=O)n1Cc1ccccc1Br`
Result: 1.17

Task: Try the compound `Cn1c2ccc([N+](=O)[O-])cc2c(=O)n1Cc1ccc(Cl)cc1`
Result: 1.21

Task: Try the compound `O=c1c2cc([N+](=O)[O-])ccc2[nH]n1Cc1ccccn1`
Result: 1.36

Attribution: paper PMC11508334
